// reported pKd per item
Molecular target: T1, TP-51 peptide (aa 352-414 of SEQ ID NO:1) (human)
T1 construct: Synthetic peptide (Pepscan)
T1 peptide: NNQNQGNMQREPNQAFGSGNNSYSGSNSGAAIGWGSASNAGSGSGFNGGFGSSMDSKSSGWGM
Experiment: SPR 8K, mAb captured, TP-51 injected; IgG1
pKd: −log10 of the molar value.

binder	pKd
hACI-7069-633B12-Ab1_H23L20 (IgG1) (antibody, V domains shown, Human IgG1 / kappa) VH: QVQLVQSGAEVKKPGASVKVSCKTSGFTFTEYSMHWVRQAPGQRLEWIGGINPGNGGTSYNQKFKGRVTITVDTSASTAYMELSSLRSEDTAVYYCARESWGQGTTVTVSS VL: DVVMTQSPLSLPVTLGQPASISCKSSQSLLHSDGKTYLNWLQQRPGQSPRRLIYLVSKLDSRVPDRFSGSGSGTDFTLKISRVEAEDLGVYYCWQGTHFPHTFGQGTKLEIK	8.21
hACI-7069-633B12-Ab1_H19L18 (IgG1 isotype) (antibody, V domains shown, Human IgG1 / kappa; also called hACI-7069-633B12-Ab1_H19L18 (hIgG1 isotype)) VH: QVQLVQSGAEVKKPGASVKVSCKTSGFTFTEYSMHWVRQAPGQRLEWIGGINPGNAGTSYNQKFKGRVTITVDTSASTAYMELSSLRSEDTAVYYCARESWGQGTTVTVSS VL: DVVMTQSPLSLPVTLGQPASISCKSSQSLLHSDAKTYLNWLQQRPGQSPRRLIYLVSKLDSRVPDRFSGSGSGTDFTLKISRVEAEDLGVYYCFQGTHFPHTFGQGTKLEIK	8.55
hACI-7069-633B12-Ab1_H20L19 (IgG1) (antibody, V domains shown, Human IgG1 / kappa) VH: EVQLVQSGAEVKKPGASVKVSCKTSGFTFTEYSMHWVRQAPGQRLEWIGGINPGNAGTSYNQKFKGRVTITVDTSASTAYMELSSLRSEDTAVYYCARESWGQGTTVTVSS VL: DVVMTQSPLSLPVTLGQPASISCKSSQSLLHSDAKTYLNWLQQRPGQSPKRLIYLVSKLDSRVPDRFSGSGSGTDFTLKISRVEAEDLGVYYCFQGTHFPHTFGQGTKLEIK	8.85

Values were extracted from patent US20230322908A1.
